# measured_target: C-Raf (Homo sapiens (Human), UniProt P04049)
# Sequence (P04049 whole entry): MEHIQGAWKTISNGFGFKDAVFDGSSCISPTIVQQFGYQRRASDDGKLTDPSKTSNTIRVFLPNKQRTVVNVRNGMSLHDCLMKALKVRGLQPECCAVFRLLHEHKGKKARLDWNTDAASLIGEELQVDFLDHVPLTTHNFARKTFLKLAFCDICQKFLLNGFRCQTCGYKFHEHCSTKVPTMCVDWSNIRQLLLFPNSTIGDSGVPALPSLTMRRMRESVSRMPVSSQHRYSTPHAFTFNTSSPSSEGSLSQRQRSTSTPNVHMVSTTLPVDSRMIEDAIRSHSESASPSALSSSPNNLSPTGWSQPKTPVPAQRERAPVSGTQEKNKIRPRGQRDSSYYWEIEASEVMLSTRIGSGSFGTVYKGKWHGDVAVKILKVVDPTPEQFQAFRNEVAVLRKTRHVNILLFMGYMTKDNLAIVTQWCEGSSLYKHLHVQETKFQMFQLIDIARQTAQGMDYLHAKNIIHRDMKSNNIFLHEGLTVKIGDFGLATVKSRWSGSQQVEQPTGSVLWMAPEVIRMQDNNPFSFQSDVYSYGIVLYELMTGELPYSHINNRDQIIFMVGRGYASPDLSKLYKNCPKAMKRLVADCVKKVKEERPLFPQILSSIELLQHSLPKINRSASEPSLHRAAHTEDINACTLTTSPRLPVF
# protocol_text: Raf kinase assay (C-Raf), [33P] incorporation into MEK1(K97R)
# Type: biochemical
quantity_name: IC50 (nM)
Answers are plain numbers, in nM.

COc1cc(-c2ccc3ncnc(Nc4ccc(F)cc4F)c3c2)ccc1O    882
COc1ccc(-c2ccc3ncnc(Nc4cccc5[nH]ncc45)c3c2)cc1Cl    876
CCOc1ccc(-c2ccc3ncnc(Nc4cccc5[nH]ncc45)c3c2)cc1    1560
COc1ccc(-c2ccc3ncnc(Nc4cccc5[nH]ncc45)c3c2)cc1    2950

Now turn to the next molecule.
The molecule identified as Cc1ccc(F)cc1-c1ccc2ncnc(Nc3cccc4[nH]ncc34)c2c1 registered its IC50 at 778
